Values from ChEMBL document CHEMBL4837242

# measured.on: Leukotriene B4 receptor 2 (Homo sapiens, UniProt Q9NPC1)
# Sequence (Q9NPC1 whole entry): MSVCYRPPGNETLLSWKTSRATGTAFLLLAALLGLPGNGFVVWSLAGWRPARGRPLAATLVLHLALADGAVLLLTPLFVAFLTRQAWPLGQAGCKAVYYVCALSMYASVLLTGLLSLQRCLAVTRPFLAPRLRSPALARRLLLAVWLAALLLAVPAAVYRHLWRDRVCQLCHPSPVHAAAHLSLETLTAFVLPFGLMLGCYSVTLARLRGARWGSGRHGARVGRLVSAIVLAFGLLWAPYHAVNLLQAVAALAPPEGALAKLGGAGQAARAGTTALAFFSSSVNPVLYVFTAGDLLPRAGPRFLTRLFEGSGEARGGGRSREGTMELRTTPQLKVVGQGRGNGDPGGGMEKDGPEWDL
# assay.explanation: Agonist activity at human BLT2 overexpressed in CHO-K1 cells assessed as accumulation of inositol monophosphate measured after 90 mins by HTRF assay
# Type: functional, cell-based
# applied.conditions: read-out: EC50
pEC50: −log10 of the molar value.
value.kind: pEC50

compound=CCOc1nc2cccc(C(=O)O)c2n1Cc1ccc(-c2ccccc2-c2nnn[nH]2)cc1 value_kind=pEC50 numeric_value=4.82
compound="CCCCC1=NC(C)(C(C)C)C(=O)N1Cc1ccc(-c2ccccc2-c2nnn[nH]2)cc1 (centres undefined)" value_kind=pEC50 numeric_value=7.17
compound="CCCCC1=NC(C)(c2ccccc2)C(=O)N1Cc1ccc(-c2ccccc2-c2nnn[nH]2)cc1 (centres undefined)" value_kind=pEC50 numeric_value=6.26
compound="CCCCC1NC(=O)C2(CCCC2)N1Cc1ccc(-c2ccccc2C(=O)O)cc1 (centres undefined)" value_kind=pEC50 numeric_value=4.62
compound=CCCCC1=NC2(CCCC2)C(=O)N1Cc1ccc(-c2ccccc2-c2nnn[nH]2)cc1 value_kind=pEC50 numeric_value=6.39
compound=CCCCC(=O)N(Cc1ccc(-c2ccccc2-c2nnn[nH]2)cc1)[C@H](C(=O)O)C(C)C value_kind=pEC50 numeric_value=4.80
compound=CCCCC1=NC2(CCCCC2)C(=O)N1Cc1ccc(-c2ccccc2C(=O)O)cc1 value_kind=pEC50 numeric_value=6.07
compound=CCCCC1=NC(C)(C)C(=O)N1Cc1ccc(-c2ccccc2-c2nnn[nH]2)cc1 value_kind=pEC50 numeric_value=5.09
compound=CCCC[C@H]1N(Cc2ccc(-c3ccccc3-c3nnn[nH]3)cc2)C(=O)[C@H]2CCCN21 value_kind=pEC50 numeric_value=5.12

---

# viability at 72 h, 50 µM listing for each entry below
# assay.explanation: Cytotoxicity against human HepG2 cells assessed as cell survival rate at 50 uM measured after 3 days by Celltiter-glo assay relative to control
# Assay type: cell-based
# applied.conditions: HepG2 cells, read-out: Activity
value.kind: viability at 72 h, 50 µM

compound="CCCCC1NC(C)(C)C(=O)N1Cc1ccc(-c2ccccc2-c2nnn[nH]2)cc1 (stereo not drawn)" result=77%
compound=CCCC[C@H]1N(Cc2ccc(-c3ccccc3-c3nnn[nH]3)cc2)C(=O)[C@H]2CCCN21 result=88%
compound=O=C(O)c1ccccc1-c1ccc(CN2C(=O)C3(CCCC3)N=C2Cc2ccccc2)cc1 result=79%
